Property: growth inhibition; scope: individual compounds
METHOD_DESCRIPTION: NCI Yeast Anticancer Drug Screen. Data for the rad50 strain (AID 155);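 also: 0% = growth of vehicle-only cultures of the same strain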
TEST_PARAMETERS: S. cerevisiae rad50 strain growth inhibition; at 5.0 µM (retest, dose inferred, filed as 0.5); active compounds read high
Compounds without any hit were thinned out: in the full panel of roughly 79,000, 15% have a hit.
Field: numeric (%). Do not append units.

Some compounds with recorded growth inhibition:
{"COMPOUND": "O=C1C(Cl)=C(Cl)C(=O)c2cc(Cl)c(Cl)cc21", "EXPERIMENTAL_READOUT": "growth inhibition", "RECORDED_NUMBER": 82}
{"COMPOUND": "Cc1nn(C)c2ccc3ccccc3c(=O)c12", "EXPERIMENTAL_READOUT": "growth inhibition", "RECORDED_NUMBER": 9}
{"COMPOUND": "O=C(/C=C\\c1cccc2ccccc12)c1ccccn1", "EXPERIMENTAL_READOUT": "growth inhibition", "RECORDED_NUMBER": 7}
{"COMPOUND": "COc1cccc2c1C(=O)c1c(O)c3c(c(O)c1C2=O)CC(O)(C(C)=O)CC3OC1CC(NCC2(O)OCC(O)C(O)C2O)C(O)C(C)O1 (stereo not given)", "EXPERIMENTAL_READOUT": "growth inhibition", "RECORDED_NUMBER": 54}
{"COMPOUND": "S=c1n(-c2ccc(Cl)cc2)c2nc3ccccc3nc(/c2=N\\Nc2cc(Cl)ccc2Cl)n1-c1ccc(Br)cc1", "EXPERIMENTAL_READOUT": "growth inhibition", "RECORDED_NUMBER": 2}
{"COMPOUND": "COc1ccc2c(c1)CC[C@@H]1C2CC[C@]2(C)OC(=O)CCC12 (stereo not given in full)", "EXPERIMENTAL_READOUT": "growth inhibition", "RECORDED_NUMBER": -23}
{"COMPOUND": "COC(=O)NNc1c([N+](=O)[O-])cnn(-c2ccccc2)c1=O", "EXPERIMENTAL_READOUT": "growth inhibition", "RECORDED_NUMBER": 18}
{"COMPOUND": "CCN1C(/C=C/c2ccc(O)c3ncccc23)CCC2CC(C)CCC21 (stereo not given)", "EXPERIMENTAL_READOUT": "growth inhibition", "RECORDED_NUMBER": 20}
{"COMPOUND": "CCN(CC)C(=S)N/N=C(\\C)c1cccc(C)n1", "EXPERIMENTAL_READOUT": "growth inhibition", "RECORDED_NUMBER": 84}

Then this compound:
For `O=C(Cl)c1ccc(N=Nc2ccccc2)cc1` the compound record lists growth inhibition as 2

Values from PubChem BioAssay (NCI)
